# System: PC-3 prostate
# test: NCI tumour cell line growth inhibition, 48 h

{"molecule": "Cc1ccc(-c2c3c(N)nc(-c4ccncc4)nc3nc3c2c(C)nn3-c2ccccc2)cc1", "TGI": "> 37.5 µM"}
{"molecule": "CC(C)[Si](Oc1cc2c3c(ccc2c(O)c1[C@@H](C)CO[Si](C)(C)C(C)(C)C)C(C)(C)CCC3)(C(C)C)C(C)C", "TGI": "> 100 µM"}
{"molecule": "CC[C@@]1(O)C(=O)OCc2c1cc1n(c2=O)Cc2cc3c(Cl)c4c(cc3nc2-1)OCO4", "TGI": "> 100 µM"}
{"molecule": "Nc1cccc2c1CN(C1CCC(=O)NC1=O)C2=O (stereo not drawn)", "TGI": "> 100 µM"}
{"molecule": "Clc1ccc(/C=C/c2nc(-c3ccc(Cl)cc3)cn3c2nc2ccccc23)cc1", "TGI": "> 100 µM"}
{"molecule": "CC(=O)NC1CCCN(O)C(=O)/C=C(/C)CCOC(=O)C(NC(C)=O)CCCN(O)C(=O)/C=C(/C)CCOC(=O)C(NC(C)=O)CCCN(O)C(=O)/C=C(/C)CCOC1=O.[Fe] (stereo not drawn)", "TGI": "> 100 µM"}
{"molecule": "COc1ccccc1N(C(C)=O)C1=C(Cl)C(=O)c2ccccc2C1=O", "TGI": "10.8 µM"}
{"molecule": "Nc1cccc(/C=C/CN2CCN(CCOC(c3ccccc3)c3ccccc3)CC2)c1", "TGI": "30 µM"}
{"molecule": "Cc1ccc(-n2nnc3c(sc4ccccc43)c2=O)cc1", "TGI": "> 100 µM"}
{"molecule": "C[As](C)SCC(NC(=O)CCC(N)C(=O)O)C(=O)NCC(=O)O.Cl.c1ccncc1 (stereo not drawn)", "TGI": "4 µM"}
{"molecule": "Cc1ccc(C)c(NC(=O)/C(=N\\N)C(c2cnc3ccc([N+](=O)[O-])cc3n2)[N+](=O)[O-])c1 (stereo not drawn)", "TGI": "> 100 µM"}
{"molecule": "O=C1/C(=C/c2ccc3c(c2)OCO3)Sc2scc(-c3ccc(O)c(O)c3)[n+]21", "TGI": "16.2 µM"}
{"molecule": "O=C1NC(=O)C(N2CCc3ccccc32)=C1c1ccc(Cl)cc1", "TGI": "> 25 µM"}
{"molecule": "CC(C)CNC(=O)c1c(NC(=O)c2ccccc2)sc2[nH]c(=O)n(-c3ccccc3)c(=O)c12", "TGI": "> 100 µM"}
{"molecule": "CCOC(=O)C1=COC(C)(C)CC1=O", "TGI": "> 100 µM"}
{"molecule": "O=Cc1c[nH]c2ccc(-c3csc4ccccc34)cc12", "TGI": "> 100 µM"}
{"molecule": "CCn1c(SCC(=O)NNC(=S)Nc2ccc(Cl)cc2)nc2ccccc2c1=O", "TGI": "> 100 µM"}
{"molecule": "CS(=O)/C(C#N)=C\\C=C\\c1cccc(Cl)c1 (stereo not drawn)", "TGI": "12.8 µM"}
